B1: SAM and SH3 domain-containing protein 1, residues 630 to 700; numbered along this chain, O94885 (parent)
chain: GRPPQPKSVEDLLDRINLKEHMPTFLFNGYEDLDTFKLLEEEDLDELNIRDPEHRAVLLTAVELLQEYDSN

Variants of: B1
assay.explanation: abundance fitness (aPCA) (normalised: wild type 0, dead -1); higher = more abundant; growth selection in yeast, the domain comes from the species named
study.conditions: Homo sapiens
Would you mind labelling by abundance fitness? At or over -0.8 is criterion met, under is criterion not met.

In [3]: df
Out[3]:
   mutant_designation  assigned_category
0                L33Q      criterion met
1                D45T      criterion met

Determine whether this variant has abundance fitness no lower than -0.8: L39Y criterion not met

Determine whether this variant has abundance fitness no lower than -0.8: E41M criterion met

Determine whether this variant has abundance fitness no lower than -0.8: F27W criterion met

Determine whether this variant has abundance fitness no lower than -0.8: P6M criterion met

Determine whether this variant has abundance fitness no lower than -0.8: L12I criterion met

Determine whether this variant has abundance fitness no lower than -0.8: D69H criterion met

Determine whether this variant has abundance fitness no lower than -0.8: D14Y criterion met

Determine whether this variant has abundance fitness no lower than -0.8: L12A criterion not met

Determine whether this variant has abundance fitness no lower than -0.8: N48V criterion not met

Determine whether this variant has abundance fitness no lower than -0.8: E41F criterion not met

Determine whether this variant has abundance fitness no lower than -0.8: G29I criterion not met

Determine whether this variant has abundance fitness no lower than -0.8: R15K criterion met

Determine whether this variant has abundance fitness no lower than -0.8: L26D criterion met

Determine whether this variant has abundance fitness no lower than -0.8: R55P criterion not met

Determine whether this variant has abundance fitness no lower than -0.8: M22R criterion met

Determine whether this variant has abundance fitness no lower than -0.8: R2Q criterion met

Determine whether this variant has abundance fitness no lower than -0.8: E67H criterion met

Determine whether this variant has abundance fitness no lower than -0.8: D11K criterion met

Determine whether this variant has abundance fitness no lower than -0.8: L38P criterion not met
